# Assay protocol: Cytotoxicity SRB assay, HCT-116
# Cond: human
Measured quantity: IC50 at 72 h

Worked examples follow.
Compound	Measured quantity	Result
COc1cc(OC(C)=O)c2c(c1Cl)/C=C/C[C@H](OC(C)=O)[C@H](OC(C)=O)[C@@H](OC(C)=O)CCC[C@H](C)OC2=O [Compound 19]	IC50 at 72 h	> 10 µM
COc1cc(O)c2c(c1)C=CCC1OC(C)(C)OC1C(=O)C=CCC(C)OC2=O (stereo not shown) [Compound 26]	IC50 at 72 h	9.16 µM
COc1cc(O)c2c(c1)/C=C/C[C@H]1OC(C)(C)O[C@H]1C(=O)/C=C/C[C@H](C)OC2=O [Compound 25]	IC50 at 72 h	> 10 µM
COc1cc(O)c2c(c1)/C=C/C[C@H]1OC(C)(C)O[C@@H]1C(=O)/C=C/C[C@H](C)OC2=O [Compound 23]	IC50 at 72 h	3.51 µM
COc1cc(O)c2c(c1)/C=C/C[C@H](O)[C@H](O)[C@@H](O)CCC[C@H](C)OC2=O [Compound 10]	IC50 at 72 h	> 10 µM
COc1cc(O)c2c(c1)/C=C/C[C@@H]1OC(C)(C)O[C@@H]1C(=O)/C=C/C[C@H](C)OC2=O [Compound 20]	IC50 at 72 h	> 10 µM

Lab note: COc1cc(O)c2c(c1)/C=C/C[C@H](O)[C@H](O)[C@@H](O)/C=C/C[C@H](C)OC2=O [Compound 8, zeaenol] gave IC50 at 72 h of > 10 µM
